B1: POU domain, class 5, transcription factor 1, residues 134 to 212; numbered along this chain, Q01860 (parent)
chain: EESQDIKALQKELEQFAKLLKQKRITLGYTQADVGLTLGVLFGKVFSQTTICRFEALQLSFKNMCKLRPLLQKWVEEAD

# Variants of: B1
# Test Method Notes: abundance fitness (aPCA) (normalised: wild type 0, dead -1); higher = more abundant; growth selection in yeast, the domain comes from the species named
# Measurement Setup: Homo sapiens
Class field: derived from abundance fitness; ranges low = under -0.3, intermediate = from -0.3 up to -0.07, high = -0.07 and over

Dear colleague, I would appreciate it if you could identify the bin for M64K and reply at your convenience.
intermediate

Same thing, different variant: K44E
high

Same thing, different variant: L36N
high

Same thing, different variant: K7W
intermediate

Same thing, different variant: L36V
high

Same thing, different variant: S60L
intermediate

Same thing, different variant: S47K
low

Same thing, different variant: A56D
high

Same thing, different variant: K11A
intermediate

Same thing, different variant: K23R
high

Same thing, different variant: L27I
high

Same thing, different variant: E12I
intermediate

Same thing, different variant: N63F
intermediate

Same thing, different variant: K18W
intermediate

Same thing, different variant: K66Q
high

Same thing, different variant: V45E
high

Same thing, different variant: A56H
intermediate

Same thing, different variant: K18V
low

Same thing, different variant: F61N
intermediate

Same thing, different variant: Q31V
low

Same thing, different variant: Q10I
low

Same thing, different variant: Q10A
intermediate

Same thing, different variant: D79P
high

Same thing, different variant: V34T
low

Same thing, different variant: F42A
high

Same thing, different variant: Q48A
high

Same thing, different variant: I25R
intermediate

Same thing, different variant: Q72C
intermediate

Same thing, different variant: G39D
low

Same thing, different variant: E14W
low

Same thing, different variant: L20G
low

Same thing, different variant: S47D
low

Same thing, different variant: S3G
high

Same thing, different variant: Q10N
intermediate

Same thing, different variant: F54K
low

Same thing, different variant: E76A
intermediate

Same thing, different variant: Q31D
intermediate

Same thing, different variant: W74D
low

Same thing, different variant: D5E
low

Same thing, different variant: L9I
low

Same thing, different variant: K11T
low

Same thing, different variant: T49G
intermediate

Same thing, different variant: C52Y
low

Same thing, different variant: F61R
low

Same thing, different variant: M64A
intermediate

Same thing, different variant: R24Q
low

Same thing, different variant: E14Y
high

Same thing, different variant: Q31R
low

Same thing, different variant: T49C
low

Same thing, different variant: T26S
high

Same thing, different variant: Q72S
low

Same thing, different variant: K73S
low

Same thing, different variant: A78Q
high

Same thing, different variant: K44G
low

Same thing, different variant: K21Q
intermediate

Same thing, different variant: K44N
intermediate

Same thing, different variant: L27M
intermediate

Same thing, different variant: R68Q
low

Same thing, different variant: G43R
low

Same thing, different variant: F46S
low

Same thing, different variant: Q31C
high

Same thing, different variant: K62V
intermediate

Same thing, different variant: E77M
high

Same thing, different variant: F46P
high

Same thing, different variant: L38R
low

Same thing, different variant: A17G
high

Same thing, different variant: I6E
low

Same thing, different variant: L57V
high

Same thing, different variant: Q4K
high

Same thing, different variant: V45S
high

Same thing, different variant: K62D
high

Same thing, different variant: L70W
low

Same thing, different variant: E76R
low

Same thing, different variant: A56T
intermediate

Same thing, different variant: Q48L
low

Same thing, different variant: V40S
high

Same thing, different variant: L9N
intermediate

Same thing, different variant: N63Y
low

Same thing, different variant: F42Y
high

Same thing, different variant: Q31E
high

Same thing, different variant: E1W
intermediate

Same thing, different variant: V75K
high

Same thing, different variant: N63L
low

Same thing, different variant: E76C
high

Same thing, different variant: A32G
intermediate

Same thing, different variant: P69W
low

Same thing, different variant: L9R
high

Same thing, different variant: L36A
high

Same thing, different variant: K18F
intermediate
